subject_of_test: T1, Recombinant human CD137 (R&D systems) (human, UniProt Q07011 24-186, biotinylated with EZ-Link Sulfo-NHS-LC-LC-Biotin)
T1 construct: Bought protein; also called human CD137 protein; TNFRSF9
assay_method_text: SPR (Biacore), biotinylated human CD137 on streptavidin chip
Starred links: 1 amine or outer side, 2 acyl side, 3 side chain; linkers in the order of their positions; H or OH if unused. Positions of bridges follow the written chain, without caps; N, C: chain ends. Non-standard residues stand in square brackets, D forms with d. Chains are numbered I, II in the order given. No end group written: not given here. *: point of attachment. TATA = O=C(CC[*:1])N1CN(C(=O)CC[*:2])CN(C(=O)CC[*:3])C1; 1Nal = N[C@@H](Cc1cccc2ccccc12)C(=O)O; Hyp = O=C(O)[C@@H]1C[C@@H](O)CN1; hArg = N=C(N)NCCCC[C@H](N)C(=O)O; tBuAla = CC(C)(C)C[C@H](N)C(=O)O; Nle = CCCC[C@H](N)C(=O)O; Pent4ynoyl = C#CCCC(=O)*; Dap = NC[C@H](N)C(=O)O; βAla = NCCC(=O)O; Sar = CNCC(=O)O
observable: Kd (nM)
Lab book: enter the figure in nM, no units written.

Task: Give the measured Kd of heterotandem bicyclic peptide complex BCY10000 (linker I:11-I:15-I:25, II:1-II:8-II:15 via TATA; not fully specified (C-terminus); numbers in words are those of the source; also: linker to a chain's N/C-terminus via PEG12) peptide 1: {Pent4ynoyl-βAla}-[Sar][Sar][Sar][Sar][Sar][Sar][Sar][Sar][Sar][Sar]CP[1Nal][dD]CM[hArg]DWSTP[Hyp]WC peptide 2: Ac-C[tBuAla]PE[dA]PYCFADPY[Nle]C[Dap] .
Result: 6.19
